Listed substances paired with reported percent inhibition of AR, 187.5 nM
# Test system: AR mRNA
# assay: Dose-dependent antisense inhibition of human AR in HuVEC cells (electroporation, qRT-PCR RTS3559, IC50)
# Assay type: cell-based
# study-conditions: Table 35; 187.5 nM, HuVEC, electroporation, approximately 16 hours
Oligonucleotides are written 5' to 3', each unit as a sugar letter and its base; * is a phosphorothioate linkage, no mark a phosphodiester; rarer units and linkages stand in square brackets, end groups in braces. Plain capitals give the bases only. k = constrained ethyl (cEt); [5mC] = 5-methylcytosine; d = 2'-deoxy (DNA)
readout-label: percent inhibition of AR, 187.5 nM (%)

| substance | tgt | readout-label | reported |
| --- | --- | --- | --- |
| 584148 (k[5mC]*kA*kT*dA*dT*dT*dA*dT*dT*dG*dT*dG*d[5mC]*kT*kG*k[5mC]; antisense) [compound 584148] | AR mRNA | percent inhibition of AR, 187.5 nM | 48 |
| 584145 (kA*kT*kG*dG*dG*dA*dG*dT*dA*dA*d[5mC]*dT*dT*kT*kT*kG; antisense) [compound 584145] | AR mRNA | percent inhibition of AR, 187.5 nM | 32 |
| 584166 (k[5mC]*kA*k[5mC]*dA*dT*d[5mC]*dA*dG*dA*dA*dG*dG*dA*kG*kT*kA; antisense) [compound 584166] | AR mRNA | percent inhibition of AR, 187.5 nM | 52 |
| 584183 (kA*k[5mC]*kA*dG*dG*d[5mC]*dT*d[5mC]*dT*dG*dA*d[5mC]*dT*kA*kG*kG; antisense) [compound 584183] | AR mRNA | percent inhibition of AR, 187.5 nM | 41 |
| 584180 (kG*kT*kA*dG*dA*dT*dT*d[5mC]*dT*dA*dG*d[5mC]*dT*kT*kT*kG; antisense) [compound 584180] | AR mRNA | percent inhibition of AR, 187.5 nM | 56 |
| 584167 (kG*kA*kG*dT*dG*dT*dT*dA*dA*dT*dG*dA*dA*kG*kA*k[5mC]; antisense) [compound 584167] | AR mRNA | percent inhibition of AR, 187.5 nM | 45 |
| 584111 (kG*kT*kT*dT*dT*d[5mC]*dA*dA*dA*dT*dG*d[5mC]*dA*kG*k[5mC]*k[5mC]; antisense) [compound 584111] | AR mRNA | percent inhibition of AR, 187.5 nM | 30 |
| 584152 (kG*kA*kG*dT*dT*dG*dT*dG*dA*dT*dT*dT*d[5mC]*kA*kG*kG; antisense) [compound 584152] | AR mRNA | percent inhibition of AR, 187.5 nM | 59 |
